procedureSummary: folding enthalpy; higher = less favourable; fluorescence melt of hairpins on a sequencing array, two-state fit
conditionsUsed: sodium 0.088 M
recordedEndpoint: folding enthalpy
Give me the value, and tack the unit on after it.

The following sequences have reported results that may help.
{"residues": "GGCTAACGAAAGTTGGCC (((.(((....))).)))", "folding enthalpy": "-44.2 kcal/mol"}
{"residues": "GATCAAAGCATTGATC ((((((....))))))", "folding enthalpy": "-36.8 kcal/mol"}
{"residues": "GATCGAGAACTCGATC ((((((....))))))", "folding enthalpy": "-37.6 kcal/mol"}
{"residues": "GGGTGAGGAAACCCACCC (((((.(....).)))))", "folding enthalpy": "-50.9 kcal/mol"}

Q. Entry GGCCACGGAAACACGGCC ((((..(....)..)))) has what folding enthalpy?
A. -32.5 kcal/mol

Q. Entry GATCACGCGGGTGATC ((((((....)))))) has what folding enthalpy?
A. -32 kcal/mol

Q. Entry GAGTGGGGAAACCCGCTC (((.(((....))).))) has what folding enthalpy?
A. -35.8 kcal/mol

Q. Entry GGATCTCGAAAGAGGTCC (((.(((....))).))) has what folding enthalpy?
A. -41.4 kcal/mol

Q. Entry GTGTGCGAAAGCAAACAC ((((((....)))..))) has what folding enthalpy?
A. -24.1 kcal/mol

Q. Entry GCTGGGCGAAAGCGCGGC ((.(.((....)).).)) has what folding enthalpy?
A. -33.2 kcal/mol

Q. Entry GGGTTTGGAAACGAATCC ((.((.(....).)).)) has what folding enthalpy?
A. -25.1 kcal/mol

Q. Entry GGCAGCGAAAGCTGAGCC ((((((....)))..))) has what folding enthalpy?
A. -14.1 kcal/mol

Q. Entry GATCACCGCAGTGATC ((((((....)))))) has what folding enthalpy?
A. -40 kcal/mol

Q. Entry GATCACGTCCGTGATC ((((((....)))))) has what folding enthalpy?
A. -41.6 kcal/mol

----------
procedureSummary: folding enthalpy; higher = less favourable; fluorescence melt of hairpins on a sequencing array, two-state fit
conditionsUsed: sodium 0.088 M
Categorized via folding enthalpy: lo (below -40 kcal/mol), mid (-40 kcal/mol to below -30 kcal/mol), hi (-30 kcal/mol or more)

Use the examples below as a reference point.
{"residues": "GCGGTTGCCCGC ((((....))))", "discreteLabel": "hi"}
{"residues": "GATCCCAAGTGGGATC ((((((....))))))", "discreteLabel": "mid"}
{"residues": "GCGCTTGGAAACGAGTGC ((.((.(....).)).))", "discreteLabel": "mid"}
{"residues": "GTTGTGTCGAAAGACAAC (((..(((....))))))", "discreteLabel": "hi"}
{"residues": "GATCAATGCATTGATC ((((((....))))))", "discreteLabel": "lo"}
{"residues": "GCACAACGAAAGTTATGC (((.(((....))).)))", "discreteLabel": "mid"}

Kindly review the next sequence as well.
Q. Any idea which band GTGAGTGGAAACACTTAC ((.((((....)))).)) is in?
A. hi

----------
procedureSummary: folding enthalpy; higher = less favourable; fluorescence melt of hairpins on a sequencing array, two-state fit
conditionsUsed: sodium 0.088 M
Categorized via folding enthalpy: interval 1 = under -30 kcal/mol, interval 2 = from -30 kcal/mol up to -20 kcal/mol, interval 3 = -20 kcal/mol and over

Q. Any idea which band GCAAGTCCGAAAGGATGC (((..(((....)))))) is in?
A. interval 3

Q. Any idea which band GATCGCCTCTGCGATC ((((((....)))))) is in?
A. interval 1

Q. Any idea which band GCGATGCGAAAGCCTTGC ((.(.((....)).).)) is in?
A. interval 2

Q. Any idea which band GGAGGCGAAAGCCGCTCC ((((((....)))..))) is in?
A. interval 3

Q. Any idea which band GATCTGAGACAGATC ((((((...)))))) is in?
A. interval 1
